Taken from ChEMBL document CHEMBL2346630.

Tgt: Cyclin-dependent kinase 7/ cyclin H (Homo sapiens)
Sequence (P51946 whole entry): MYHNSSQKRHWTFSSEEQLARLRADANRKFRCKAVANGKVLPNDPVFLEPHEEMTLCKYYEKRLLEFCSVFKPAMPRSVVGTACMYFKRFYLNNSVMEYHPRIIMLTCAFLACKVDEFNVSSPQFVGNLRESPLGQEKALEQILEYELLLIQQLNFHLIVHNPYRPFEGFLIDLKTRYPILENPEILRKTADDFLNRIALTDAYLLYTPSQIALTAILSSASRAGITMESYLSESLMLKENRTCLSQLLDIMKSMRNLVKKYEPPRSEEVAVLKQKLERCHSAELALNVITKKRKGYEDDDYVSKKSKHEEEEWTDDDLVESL
Sequence (P50613 whole entry): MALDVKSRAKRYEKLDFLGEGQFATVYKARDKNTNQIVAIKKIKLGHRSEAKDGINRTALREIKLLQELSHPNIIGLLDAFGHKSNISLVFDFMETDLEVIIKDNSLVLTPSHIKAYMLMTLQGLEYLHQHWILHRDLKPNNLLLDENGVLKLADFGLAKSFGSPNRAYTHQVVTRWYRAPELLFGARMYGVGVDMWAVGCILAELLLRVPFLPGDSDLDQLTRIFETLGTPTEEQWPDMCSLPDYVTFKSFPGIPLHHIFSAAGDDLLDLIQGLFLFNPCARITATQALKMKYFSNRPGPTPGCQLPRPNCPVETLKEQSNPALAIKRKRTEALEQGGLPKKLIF
Assay Comment: biochemical
Description: Inhibition of human recombinant His6 tagged CDK7/CyclinH/MAT1 expressed in Sf21 insect cells after 40 mins by scintillation counting analysis
Quantity Kind: Ki (nM)
Give just the number in nM; leave the unit off.

Let me know recorded Ki for CNc1nc(C)c(-c2nc(Nc3cccc(S(N)(=O)=O)c3)ncc2Cl)s1 , thanks.
685

Report measured Ki; entry is CNc1nc(C)c(-c2nc(Nc3cccc(N4CCOCC4)c3)ncc2F)s1
473

Given the molecule CNc1nc(C)c(-c2ccnc(Nc3cccc(N4CCCNCC4)c3)n2)s1 , write its reported Ki.
433

Give Ki for CNc1ncc(-c2ccnc(Nc3ccc(S(N)(=O)=O)cc3)n2)s1
54

Give the measured Ki for CNc1nc(C)c(-c2ccnc(Nc3cccc([N+](=O)[O-])c3)n2)s1
417

Given the molecule CNc1ncc(-c2ccnc(Nc3cccc(S(N)(=O)=O)c3)n2)s1 , write its reported Ki.
40

Indicate its recorded Ki; the molecule in question is CNc1nc(C)c(-c2nc(Nc3cccc(N4CCNCC4)c3)ncc2Cl)s1
155

Please report Ki for the following molecule: CNc1nc(C)c(-c2nc(Nc3cccc(N4CCCNCC4)c3)ncc2F)s1
111

---

Tgt: Cyclin-dependent kinase 2/cyclin A (Homo sapiens)
Assay Comment: biochemical
Description: Inhibition of human recombinant His6 tagged CDK2/Cyclin A expressed in Sf21 insect cells after 40 mins by scintillation counting analysis
Threshold-based label: Ki under 30 nM gives YES, Ki not under 30 nM gives NO.

Dear reviewer, please state whether CNc1nc(C)c(-c2nc(Nc3cccc(N4CCCCC4)c3)ncc2C#N)s1 has Ki strictly beneath 30 nM.
NO

is_below(Ki, 30 nM) for CNc1nc(C)c(-c2ccnc(Nc3cccc([N+](=O)[O-])c3)n2)s1 ?
YES

Hello, is Ki of the following compound strictly smaller than 30 nM? CNc1nc(C)c(-c2nc(Nc3cccc(N4CCNCC4)c3)ncc2F)s1
YES

Quick check: Ki of CNc1nc(CC(F)(F)F)c(-c2ccnc(Nc3ccc(O)cc3)n2)s1 under 30 nM?
NO

is_below(Ki, 30 nM) for CCc1cnc(Nc2cccc(S(N)(=O)=O)c2)nc1-c1sc(NC)nc1C ?
NO

Record CNc1nc(C(F)(F)F)c(-c2ccnc(Nc3cccc(S(N)(=O)=O)c3)n2)s1 : is its Ki strictly below 30 nM?
YES

Is Ki of CNc1nc(C)c(-c2nc(Nc3cccc(S(N)(=O)=O)c3)ncc2C)s1 strictly below 30 nM?
NO

Record CNc1nc(C)c(-c2nc(Nc3cccc(N4CCNCC4)c3)ncc2C#N)s1 : is its Ki strictly below 30 nM?
NO

Report whether reported Ki is lower than 30 nM (strictly) for CNc1nc(C)c(-c2ccnc(Nc3cccc(N4CCCNCC4)c3)n2)s1
NO

Criterion: Ki strictly below 30 nM. Is it met by CNc1nc(C)c(-c2nc(Nc3cccc(S(N)(=O)=O)c3)ncc2O)s1 ?
NO

---

Please go through the items and note down their pKi.
Tgt: Cyclin-dependent kinase 1/cyclin B1 (Homo sapiens, UniProt P06493)
Sequence (P06493 whole entry): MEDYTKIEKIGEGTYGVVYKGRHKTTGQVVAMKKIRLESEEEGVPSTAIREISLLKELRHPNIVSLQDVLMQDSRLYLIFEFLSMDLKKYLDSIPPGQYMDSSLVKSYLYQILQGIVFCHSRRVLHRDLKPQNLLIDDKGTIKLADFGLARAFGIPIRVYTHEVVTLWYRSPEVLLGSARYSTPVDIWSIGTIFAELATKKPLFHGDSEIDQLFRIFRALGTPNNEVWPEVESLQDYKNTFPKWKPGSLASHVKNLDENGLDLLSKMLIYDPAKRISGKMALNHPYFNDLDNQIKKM
Sequence (P14635 whole entry, further chain): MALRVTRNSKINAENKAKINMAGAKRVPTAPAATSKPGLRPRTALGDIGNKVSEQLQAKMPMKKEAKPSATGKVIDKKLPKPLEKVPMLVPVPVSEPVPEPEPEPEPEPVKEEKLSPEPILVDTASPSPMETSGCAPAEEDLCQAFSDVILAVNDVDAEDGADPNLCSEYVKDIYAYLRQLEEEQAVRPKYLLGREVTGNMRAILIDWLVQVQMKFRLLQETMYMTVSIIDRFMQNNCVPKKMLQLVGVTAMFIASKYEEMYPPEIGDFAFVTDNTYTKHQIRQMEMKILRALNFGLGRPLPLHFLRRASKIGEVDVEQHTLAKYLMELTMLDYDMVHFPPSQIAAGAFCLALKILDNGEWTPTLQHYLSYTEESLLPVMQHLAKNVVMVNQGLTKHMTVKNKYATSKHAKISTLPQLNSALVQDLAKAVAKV
Assay Comment: biochemical
Description: Inhibition of human recombinant His6 tagged CDK1/Cyclin B expressed in Sf21 insect cells after 40 mins by scintillation counting analysis
pKi: −log10 of the molar value.

Check the records and state pKi for CNc1nc(CC(F)(F)F)c(-c2ccnc(Nc3cccc([N+](=O)[O-])c3)n2)s1
< 5.30

Dear colleague, please send me the reported pKi for CNc1nc(C)c(-c2nc(Nc3cccc(S(N)(=O)=O)c3)ncc2O)s1 when you can.
< 5.30

Assign pKi to the following record: CNc1nc(-c2ccccc2)c(-c2ccnc(Nc3cccc([N+](=O)[O-])c3)n2)s1
< 5.30

---

Tgt: CDK9/cyclin T1 (Homo sapiens)
Sequence (O60563 whole entry): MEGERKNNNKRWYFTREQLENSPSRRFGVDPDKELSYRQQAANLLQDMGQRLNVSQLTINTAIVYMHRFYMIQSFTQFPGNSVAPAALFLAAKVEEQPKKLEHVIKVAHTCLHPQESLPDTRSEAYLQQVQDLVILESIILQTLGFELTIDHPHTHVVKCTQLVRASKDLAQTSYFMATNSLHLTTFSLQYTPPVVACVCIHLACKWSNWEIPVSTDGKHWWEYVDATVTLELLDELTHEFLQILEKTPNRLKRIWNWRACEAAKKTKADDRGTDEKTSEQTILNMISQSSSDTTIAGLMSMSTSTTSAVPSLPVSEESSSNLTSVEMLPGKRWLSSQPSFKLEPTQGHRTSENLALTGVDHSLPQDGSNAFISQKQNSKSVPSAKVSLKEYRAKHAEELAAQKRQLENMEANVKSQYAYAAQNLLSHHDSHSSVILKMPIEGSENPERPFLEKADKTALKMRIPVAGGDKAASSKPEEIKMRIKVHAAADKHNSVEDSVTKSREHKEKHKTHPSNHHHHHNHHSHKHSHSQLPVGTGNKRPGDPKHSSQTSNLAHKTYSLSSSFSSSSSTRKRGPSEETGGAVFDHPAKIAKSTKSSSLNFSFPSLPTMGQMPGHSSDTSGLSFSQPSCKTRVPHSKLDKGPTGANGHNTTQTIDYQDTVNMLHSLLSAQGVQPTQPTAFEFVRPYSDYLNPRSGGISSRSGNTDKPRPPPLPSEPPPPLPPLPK
Sequence (P50750 whole entry): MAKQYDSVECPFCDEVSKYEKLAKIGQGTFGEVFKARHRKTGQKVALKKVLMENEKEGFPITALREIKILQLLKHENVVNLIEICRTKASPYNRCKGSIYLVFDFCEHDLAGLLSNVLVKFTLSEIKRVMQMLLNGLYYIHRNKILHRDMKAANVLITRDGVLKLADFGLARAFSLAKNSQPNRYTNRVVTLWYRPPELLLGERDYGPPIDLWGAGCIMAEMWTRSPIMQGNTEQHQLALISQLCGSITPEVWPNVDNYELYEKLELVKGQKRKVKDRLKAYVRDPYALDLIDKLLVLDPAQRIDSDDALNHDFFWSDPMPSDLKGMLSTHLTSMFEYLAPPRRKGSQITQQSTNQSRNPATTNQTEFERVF
Assay Comment: biochemical
Description: Inhibition of human recombinant His6 tagged CDK9/CyclinT1 expressed in Sf21 insect cells after 40 mins by scintillation counting analysis
For each of the molecules below, state its Ki.
Dear colleague, please return just the value in nM, with no unit written.

Look up Ki of CNc1nc(C)c(-c2nc(Nc3cccc(S(N)(=O)=O)c3)ncc2Cl)s1 and report it.
11

Write down Ki measured for item CNc1nc(C)c(-c2nc(Nc3cccc(N4CCN(C(C)=O)CC4)c3)ncc2C#N)s1
7

Determine its reported Ki: CNc1nc(C)c(-c2nc(Nc3cccc(N4CCN(C(C)=O)CC4)c3)ncc2F)s1
7

Supply measured Ki of CNc1nc(C)c(-c2nc(Nc3cccc(N4CCCCC4)c3)ncc2C#N)s1 in your reply.
9

Fill in reported Ki for this entry: CNc1nc(C2CC2)c(-c2ccnc(Nc3ccc(S(N)(=O)=O)cc3)n2)s1
8

Look up Ki of CNc1nc(C2CC2)c(-c2ccnc(Nc3cccc(S(N)(=O)=O)c3)n2)s1 and report it.
16

Supply measured Ki of CNc1nc(C)c(-c2nc(Nc3ccc(N4CCNCC4)cc3)ncc2C#N)s1 in your reply.
6
